In this section we review reported growth values for a set of molecules.
test system: MDA-MB-231 breast; assay: NCI-60 one-dose screen, 48 h (100 = growth as untreated, 0 = no growth, -100 = all killed); settings: 10 µM unless noted
The panel holds about 83,000 compounds, 20% with a hit somewhere; the sample as a whole holds those more often. The source made the active and inactive calls. The calls were made as follows: active = growth percent below 10; inactive = the rest.

O=C(NNc1nc2c(F)cccc2n2cccc12)c1cnccn1; 31.7% (inactive)

Request: growth, test system MDA-MB-231 breast, entry `COc1cc2c(=O)n(CCN(C)C)c3c4cc5c(cc4ccc3c2cc1OC)OCO5`
-21.6% (active)

Then this molecule: `N#Cc1c(NC(=O)NCc2ccccc2)sc2c1CCCCC2`
10.7% (inactive)

What do you have for `c1ccc(-c2cn3c(ccc4ccccc43)n2)cc1` ?
55.8% (inactive)

Lookup `CCCCOc1ccc(/C(C)=N/Nc2cc(C)nc3ccc(Br)cc23)cc1`
81.3% (inactive)

Follow-up item: `COc1ccc(C(=O)Cn2c(C(=O)c3ccccc3)nc3ccccc32)cc1`
37.6% (inactive)

Follow-up entry: `O=C(c1nnc(Nc2ccccc2Br)o1)c1c[nH]c2ccccc12`
88.9% (inactive)

Item: O=C(c1nc2ccccc2[nH]1)C1C(c2ccc(Br)cc2)C2CC3CCCC[C@H]3N2[C@@]12C(=O)Nc1cc(Cl)ccc12 (stereo not given in full)
41.6% (inactive)

Queued: `COc1cc(NC(=O)CSc2nc3ccc(C)cc3c(=O)n2Cc2ccccc2)cc(OC)c1OC`
35.5% (inactive)

Now the molecule `CC/C(=C\c1ccc(OC)cc1)C(=O)c1ccc(OC)cc1`
96.4% (inactive)

----------
tested on: SW-620 colon; assay: NCI-60 one-dose screen, 48 h (100 = growth as untreated, 0 = no growth, -100 = all killed); conditions: 10 µM unless noted
About 83,000 compounds went through this panel and 20% of them were active in at least one assay; those are over-represented in the sample as a whole.
measurement-name: growth (%)
All answers are understood in %, so give the number only.

CCCN1[C@@H]2CC[C@H]1/C(=C\c1ccc(OC)c(OC)c1)C(=O)/C2=C/c1ccc(OC)c(OC)c1; 43
NC(=NCCCOc1ccc(F)cc1)Nc1ccc(Cl)cc1; 56.9
CCOC(=O)CSc1nc2ccccc2c(=O)n1Cc1ccc(S(N)(=O)=O)cc1; 98.6

Quick check: growth of CN(C)CC(O)c1ccc(/C=C/c2ccc(Cl)cc2)cc1 (stereo not given) ?
-68.7

For `Cc1ccc(C(=O)/C(=C/c2ccc([N+](=O)[O-])cc2)SCc2ccc(Cl)cc2)cc1` then?
-52.1

Same thing, different compound: `O=C(CSc1nc2ccccc2[nH]1)NCc1ccccc1`
99.2

----------
system: MALME-3M melanoma; assay: NCI-60 one-dose screen, 48 h (100 = growth as untreated, 0 = no growth, -100 = all killed); settings: 10 µM unless noted
This is part of a sample that, as a whole, favours compounds with a hit. Of some 83,000 tested, about 20% had one in any assay.
t means recorded growth is 90% or above; f means it is below 90%.

O=S(=O)(NCCNc1nccc(-c2c(-c3cccc(F)c3)nc3sccn23)n1)c1ccccc1; f

Decide: growth of `Oc1ccc(C(c2ccc(O)cc2)c2ccc(Br)cn2)cc1` >= 90%?
t

Another molecule to look at: C/C=C(\C)C(=O)NC1=CC[C@@]2(C)C(=CCC3C2CC[C@@]2(C)C3CC[C@@H]2C(C)N(C)C)C1=O (stereo not given in full)
f

Let us now turn to COc1cc(C2C3=C(COC3=O)N(CCO)c3cc4c(cc32)OCO4)cc(OC)c1OC (stereo not given)
f

Another molecule to look at: `O=C(NCCNc1nccc(-c2c(-c3cccc(F)c3)nc3sccn23)n1)c1ccc(Cl)cc1`
f

Same for `Cc1nc2sccn2c1-c1cn2ccsc2n1`
f

----------
Measured growth by item
tested on: HOP-92 NSCLC; test: NCI-60 one-dose screen, 48 h (100 = growth as untreated, 0 = no growth, -100 = all killed); conditions: 10 µM unless noted
Compounds without any hit were thinned out: in the full panel of roughly 83,000, 20% have a hit.
The answer is to be given in %; state only the numeric part.

CC(=O)OC[C@]12CC[C@@H](C(=O)CBr)[C@@H]1[C@H]1CC[C@@H]3[C@@]4(C)CC[C@H](OC(C)=O)C(C)(C)[C@@H]4CC[C@@]3(C)[C@]1(C)CC2; 96

Which growth value belongs to COc1ccc2c(c1)C(=O)CC(c1ccccc1OC)O2 (stereo not drawn) ?
94.3

Here is the next molecule: NC(=S)N1N=C(c2ccccc2)CC1c1cn(-c2ccccc2)nc1-c1ccc(OCc2ccccc2)cc1 (stereo not drawn)
80

What do you have for `COc1cc2nc(-c3ccc(Cl)cc3)cc(OCCCN3CCCC3)c2cc1OC` ?
25

Note, next up: `CN1CCN(C(=O)[C@]23CCC(C)(C)C[C@H]2C2=CC[C@@H]4[C@@]5(C)C/C(=C/c6cccnc6)C(=O)C(C)(C)[C@@H]5CC[C@@]4(C)[C@]2(C)CC3)CC1`
40.7

// next record `O=C1Nc2ccc(F)cc2/C1=C\c1c(-c2ccccc2)nc2ccccn12`
72.7

Param item: `C#CCNC(=O)c1cccc2c1cc(C)n2-c1nc2c(c(NCc3ccccc3)n1)CCCC2`
-61

Same question for `Cn1ccnc1C(=O)/C=C/c1ccc(CC(=O)NC2CCCCC2)cc1` please.
75

----------
Recorded measurements of growth, one per entry
tested on: SF-539 CNS; test: NCI-60 one-dose screen, 48 h (100 = growth as untreated, 0 = no growth, -100 = all killed); conditions: 10 µM unless noted
About 83,000 compounds went through this panel and 20% of them were active in at least one assay; those are over-represented in the sample as a whole.
Give the number; % is assumed, so skip it.

Solved cases below.
CCOC(=O)[C@@H]1CCCN(S(=O)(=O)c2ccc(S(=O)(=O)N(CC)CC)c(F)c2)C1; 88.8
O=C(CCN1CCCC1)Nc1ccc2c(NCCCc3ccccc3)c3ccccc3nc2c1; 13.7
COc1ccc(C(=O)c2cc(C)c(OC)c(C)c2)c(OC)c1OC(=O)C(Cl)Cl; -16
O=C(Nc1ccc(-c2ccc3c(c2)NC(=O)/C3=C\c2ccc[nH]2)cc1)NC1CC1; 71.5
CCOc1ccc(Nc2nc(-c3ccc4c(c3)NC(=O)CO4)cs2)cc1; 78.2
Cc1ccc(C(=O)/C(=C\c2ccc([N+](=O)[O-])cc2)S(=O)Cc2ccc(F)cc2)cc1 (stereo not given); 15.4
COc1cc(NC(=O)CSc2nc3ccc(C)cc3c(=O)n2Cc2ccccc2)cc(OC)c1OC; 11.8
Fc1ccc2c(-c3cncn3CCc3ccccc3)c[nH]c2c1; 94.6
Cc1c(C)c([N+](=O)[O-])c(C)c([N+](=O)[O-])c1C; 107

Could you now consider this next compound?
Return growth measured with SF-539 CNS given this compound: CCCCC/C=C/C(C)=C/C1CC(C)C/C=C/CCC(O)C(OC(N)=O)CCC(C)CC(O)C(C)C(=O)O1 (stereo not given)
106

----------
system: SK-OV-3 ovarian; experiment: NCI-60 one-dose screen, 48 h (100 = growth as untreated, 0 = no growth, -100 = all killed); conditions: 10 µM unless noted
About 83,000 compounds went through this panel and 20% of them were active in at least one assay; those are over-represented in the sample as a whole.
measurement-name: growth (%)
Kindly provide the numeric value in % only, without the unit symbol.

Previously resolved entries follow.
COc1ccc(CC(C)=C(c2ccc(OCCN3CCCCCC3)cc2)c2ccc(OCCN3CCCCCC3)cc2)cc1; -90.1
CCCCCN1C=C/C(=C\C(=O)N2CCCc3ccccc32)c2ccccc21; 95
CCOc1ccc(/C=N/Nc2cc(C)nc3ccc(Br)cc23)cc1; 90.8
CN1CCN(C(=O)[C@]23CCC(C)(C)C[C@H]2C2=CC[C@@H]4[C@@]5(C)C/C(=C/c6ccncc6)C(=O)C(C)(C)[C@@H]5CC[C@@]4(C)[C@]2(C)CC3)CC1; 77.6

Any idea what its growth is? The compound is O=[N+]([O-])CC(c1ccccc1)c1c[nH]c2ccccc12 (stereo not drawn)
96.3

One more compound: `CCOC(=O)c1cc(C(=O)c2ccc(OC)c(OC)c2)n2c1ccc1ccccc12`
93

Same question, `CN1C(N2CCN(S(=O)(=O)c3ccccc3)CC2)=NS(=O)(=O)c2ccccc21` this time
109

Next entry: `COc1ccc2[nH]c(O)c(/C=c3/cc4c(c(-c5ccc(F)cc5)n3)=Nc3ccccc3-4)c2c1`
115

And what about the compound `c1ccc(Cn2cnc3ccc(-c4nc(-c5ccc6c(c5)ncn6C5CCCCC5)cn5ccnc45)cc32)cc1` ?
-22.2

Moving on to O=C1OC(Cc2ccccc2)C1c1ccccc1 (stereo not drawn)
121

Moving on to N#CC1=C(N)Oc2c(cnn2-c2ccc([N+](=O)[O-])cc2[N+](=O)[O-])C1c1ccccc1 (stereo not drawn)
112

Moving on to `Cc1cccc(-c2cn3ccnc3c(-c3ccc4ncn(Cc5ccccc5)c4c3)n2)c1`
102

What do we get for `Nc1nc(Nc2ccccc2SSc2ccccc2Nc2nc(N)nc(-c3ccc(C(F)(F)F)cc3)n2)nc(-c2ccc(C(F)(F)F)cc2)n1` ?
104

Lookup `O=C1NN(C(=O)c2ccccc2)C(c2ccc(Cl)c(Cl)c2)=C/C1=C\c1ccc([N+](=O)[O-])cc1`
96.7
